assay-protocol: yeast display, Sf9 membrane polyspecificity reagent, FACS + sequencing; frameworks hold sequencing errors
measurement-label: polyreactivity (PSR sort gate)

Solved entries:
{"sequence-data": "QVQLVESGGGLVQAGGSLRLSCAASGFTFYKNTMGWYRQAPGKERELVAAISSSGSSTYYADSVKGRFTISRDKAKNTVYLQMNSLKPEDTAVYYCAAGRFAYHDDYWGQGTQVTVSS", "measurement-label": "polyreactivity (PSR sort gate)", "data-value": "high polyreactivity"}
{"sequence-data": "QVQLVESGGGLVQAGGSLRLSCAASGFTFRFYAMGWYRQAPGKERELVAAISSSSSSTYYADSVKGRFTISRDNAKNTVYLQMNSLKPEDTAVYYCNAGGYTRGDYWGQGTQVTVSS", "measurement-label": "polyreactivity (PSR sort gate)", "data-value": "high polyreactivity"}
{"sequence-data": "QVQLVESGGGLVHAGGSLRLSCAASGITFSDNTMGWYRQAPGKERELVAAISWRGGRTYYADSVKGRFTISRDYAKNTVSLQMNSLKPEDTAVYYCNAVTSSKARSSSYDYWGQGTQVTVSS", "measurement-label": "polyreactivity (PSR sort gate)", "data-value": "high polyreactivity"}
{"sequence-data": "QVQLVESGGGLVQAGGSLRLSCAASGSIFYYNAMGWYIQAPGKERELVAAIRSTGSTNYADSVKGRFTISRDNAKNTVYLQMNSLKPEDTAVYYCNADYIFWLTLFDYWGQGTQVTVSS", "measurement-label": "polyreactivity (PSR sort gate)", "data-value": "low polyreactivity"}

Exercise: May I ask what polyreactivity (PSR sort gate) has been recorded for QVQLVESGGGLVQAGGSLRLSCAASGFTFYYYAMGWYRQAPGKERELVAAISRGGGNTYYADSVKGRFTISRDNAKNTVYLQMNSLKPEDTAVYYCAARRPVYRIYGDRGRWYNYWGQGTQVTVSS ?
Key: high polyreactivity

Exercise: # repeat for QVQLVESGGGLVQAGGSLRLSCAASGSIFYLYAMGWYRQAPGKERELVATITRGGSTNYADSVKGRFRISRDNAKNTDYVQMNSLKPEDTARYYCNARFFKPPYSKWSSRFDYWGQGTQVTVSS
Key: high polyreactivity

Exercise: # repeat for QVQLVESGGGLVQAGGSLRLSCAPSGFIFQANAMGWYRQAPGKERELLAAIDDGDSTYADSVKGRFTISRDNAKNTVYLQLNSLKPEDTAVYFCATRRNRSYDYWGQGTQVTVSS
Key: low polyreactivity

Exercise: # repeat for QVQLVESGGGLVQAGGSLRLSCAASGSTFVGYAMGWYSPAPGKERELVADIDSIGGSTYYADSVKGRFTISRDYANNTVYLQINSLKPEDTAVFYCAARRFDTALVLYDYWGPGTQVTVSS
Key: low polyreactivity

Exercise: # repeat for QDHLVESGGGLVQAGGSLRLSCAASGRIFDPYAMGWYRQAPGKERELVARITWRGGRTYYADSVKGRFTISLDNAKNTVYLQMNSLKPEDTAVYYCNAVFYYRYYGAYDYWGQGTQVTVSS
Key: high polyreactivity

Exercise: # repeat for QVQLVESGGGLVQAGGSLRLSCAASGRIFALNALGWYRQAPGKERELVATFRWSGGSTYYADSVKGRFTISRDYAKNTVYLQMNSLKPEDTAVYYCAAYSGNRRTYDYWGHGTQVTVSS
Key: high polyreactivity

Exercise: # repeat for QVQLVESGGGLVQAGGSLRLSCAASGIIFAHNAMGWYRQAPGKERELVAAISKRGGSTYYADSVKGRFTISLDNAKNTVYLQMNSLKPEDTAVYYCAAASFTWVSRGYDYWGQGTQVTVAS
Key: high polyreactivity
